Provenance of the data: patent US12448369B2

Tested on: Rabbit Psoas myofibrils (skeletal myosin ATPase)
Assay: Myofibril ATPase assay, rabbit psoas (skeletal) myofibrils
Assay type: biochemical
Conditions: Y75 value: concentration required to reduce myosin ATP-ase activity by 25%; Rabbit Psoas Prep pCa 25 GEOM_MEAN
Test readout: Skeletal EC25 (µM)

Past entries and their recorded results:
{"columns": ["Compound", "Unit of measure", "Measured"],
 "data": [
  ["C[C@H](NC(=O)Cc1cc2c(F)c(F)ccc2[nH]c1=O)c1nc(C#N)cs1 (single isomer, unassigned)", "µM", 4.42],
  ["CC(NC(=O)Cc1cc2c(F)c(F)ccc2[nH]c1=O)c1nc(C#N)cs1 (single isomer, unassigned)", "µM", 1.49],
  ["C[C@@H](NC(=O)Cc1cc2c(F)c(F)ccc2[nH]c1=O)c1nc(C#N)co1 (single isomer, unassigned)", "µM", 1.11],
  ["C[C@H](NC(=O)Cc1cc2c(F)c(F)ccc2[nH]c1=O)c1cc(C#N)c(F)s1 (single isomer, unassigned)", "µM", 1.06],
  ["Cc1c(CC(=O)NC(C)c2cc(C#N)c(F)s2)c(=O)[nH]c2ccc(F)c(F)c12 (stereo not shown)", "µM", 0.16]
]}

(P) CC(NC(=O)Cc1cc2cc(F)ccc2[nH]c1=O)c1cc(C#N)c(F)s1 (stereo not shown)
(Q) Cc1c(C(F)(F)C(=O)N[C@@H](C)c2nc(C#N)cs2)c(=O)[nH]c2ccc(F)cc12 (single isomer, unassigned)
Lookup: Pick one, P or Q : lowest reported Skeletal EC25. Select an item and report its label.
Found: Q
(Q: 2.38 µM, P: 4.10 µM)

====

System: Porcine atria myofibrils (atrial myosin ATPase)
Assay: Myofibril ATPase assay, porcine atria myofibrils
Format: biochemical
Details: porcine atria myofibrils; Y75 value (75% activity relative to no compound)
Test readout: Atrial EC25 (nM)

Past entries and their recorded results:
{"columns": ["Compound", "Atrial EC25 [nM]"],
 "data": [
  ["Cc1ccccc1[C@@H](C)NC(=O)Cc1c(C)c2c(C)nccc2[nH]c1=O (single isomer, unassigned)", 100000],
  ["C[C@H](NC(=O)[C@H](C)c1c(C(F)(F)F)c2cnccc2[nH]c1=O)c1ccc(F)cc1F (single isomer, unassigned)", 2530],
  ["CCOc1nccc2[nH]c(=O)c(CC(=O)N[C@@H](C)c3ccc(F)cc3F)c(C)c12", 100],
  ["Cc1nccc2[nH]c(=O)c(C3(C(=O)N[C@H](C)c4ccc(C#N)cc4F)CC3)c(C)c12 (single isomer, unassigned)", 510],
  ["Cc1nccc2[nH]c(=O)c(CC(=O)N[C@H]3COc4cc(F)cc(F)c43)c(C)c12 (single isomer, unassigned)", 28000]
]}

(A) Cc1cc(F)ccc1[C@H](C)NC(=O)Cc1c(C)c2c(C)nccc2[nH]c1=O
(B) Cc1c(CC(=O)N[C@H](C)c2ncc(C#N)cc2F)c(=O)[nH]c2ccnc(C#N)c12 (single isomer, unassigned)
Lookup: Atrial EC25 comparison. Which is larger, A or B ? Select an item and report its label.
Found: B
(B: 4560 nM, A: 100 nM)

====

System: Rabbit Psoas myofibrils (skeletal myosin ATPase)
Experiment: Myofibril ATPase assay, rabbit psoas (skeletal) myofibrils
Format: biochemical
Details: Y75 value (no ‡ mark); rabbit psoas myofibrils
Test readout: Skeletal EC25 (nM)

Past entries and their recorded results:
{"columns": ["Compound", "Skeletal EC25 / nM"],
 "data": [
  ["Cc1c(CC(=O)N[C@H]2COc3cc(C#N)cc(F)c32)c(=O)[nH]c2ccc(F)c(C#N)c12 (single isomer, unassigned) [compound 60]", 270],
  ["C[C@H](NC(=O)C1(c2cc3cc(F)ccc3[nH]c2=O)CC1)c1nccc(C#N)n1 (single isomer, unassigned) [compound 2508]", 5030],
  ["CC(C(=O)N[C@@H](C)c1ccc(F)cc1F)c1cc2c(Br)cccc2[nH]c1=O (some centres unmarked) [compound 94]", 220],
  ["Cc1c(CC(=O)NC(C)c2cnc(C#N)cn2)c(=O)[nH]c2ccc(F)c(F)c12 (stereo in doubt) [compound 1145]", 30],
  ["Cc1c(CC(=O)N[C@H](C)c2ccc(C#N)cc2F)c(=O)[nH]c2ccc(F)c(C#N)c12 [compound 67]", 30],
  ["Cc1c(CC(=O)N[C@@H](C)c2ncc(C#N)cc2F)c(=O)[nH]c2cc(F)ccc12 [compound 1079]", 140],
  ["Cc1c(CC(=O)N[C@@H](CO)c2ccc(F)cc2F)c(=O)[nH]c2cccc(C#N)c12 (single isomer, unassigned) [compound 90]", 1260],
  ["Cc1c(CC(=O)N[C@@H](C)c2ccc(F)cc2F)c(=O)[nH]c2ccc(F)c(F)c12 [compound 116]", 20],
  ["Cc1c(C(F)(F)C(=O)N[C@@H](C)c2cnc(C#N)cn2)c(=O)[nH]c2ccc(F)cc12 (single isomer, unassigned) [compound 2564]", 490],
  ["Cc1c(C(F)(F)C(=O)N[C@@H](C)c2cc(C#N)ccn2)c(=O)[nH]c2ccc(F)cc12 (single isomer, unassigned) [compound 2576]", 76360]
]}

(I) Cc1c(CC(=O)N[C@@H](C)c2ccc(C#N)cn2)c(=O)[nH]c2ccc(F)c(F)c12 [compound 46]
(II) COc1ccc2[nH]c(=O)c(CC(=O)N[C@@H](C)c3ccc(F)cc3F)cc2c1 [compound 124]
Lookup: Pick one, I or II : lowest reported Skeletal EC25. Select an item and report its label.
Found: I

(P) Cc1c(CC(=O)N[C@H](C)c2ncc(C#N)cn2)c(=O)[nH]c2cc(F)ccc12 [compound 1040]
(Q) C[C@H](NC(=O)Cc1cc2c(F)c(F)ccc2[nH]c1=O)c1ccc(F)cc1F [compound 118]
Lookup: Skeletal EC25 comparison. Which is larger, P or Q ? Select an item and report its label.
Found: P
(P: 52000 nM, Q: 30 nM)

====

Tested on: Rabbit Psoas myofibrils (skeletal myosin ATPase)
Experiment: Myofibril ATPase assay, rabbit psoas (skeletal) myofibrils
Format: biochemical
Settings: Y75 value (no ‡ mark); rabbit psoas myofibrils
Test readout: Skeletal EC25 (nM)

{"columns": ["Compound", "Unit of measure", "Skeletal EC25"],
 "data": [
  ["COc1ccc2[nH]c(=O)c(CC(=O)N[C@@H](C)c3ccc(F)cc3F)cc2c1C", "nM", 2830]
]}

(I) Cc1c(C2(C(=O)N[C@H](C)c3nccc(C#N)n3)CC2)c(=O)[nH]c2ccc(F)cc12 (single isomer, unassigned)
(II) C[C@H](NC(=O)Cc1c(C#N)c2cc(F)c(F)cc2[nH]c1=O)c1ccc(C#N)cn1 (single isomer, unassigned)
(III) Cc1c(CC(=O)N[C@H](C)c2ncc(C#N)cc2F)c(=O)[nH]c2cc(F)c(F)cc12
(IV) C[C@H](NC(=O)Cc1cc2cc(C#N)ccc2[nH]c1=O)c1ccc(F)cc1F
Lookup: Descending sort on Skeletal EC25 required. In plain terms: list the labels in the order you were asked to.
Found: I, IV, II, III

====

System: Rabbit Psoas myofibrils (skeletal myosin ATPase)
Test: Myofibril ATPase assay, rabbit psoas (skeletal) myofibrils
Format: biochemical
Conditions: rabbit psoas myofibrils; Y75 value
Test readout: Skeletal EC25 (nM)

{"columns": ["Compound", "Assay system", "Skeletal EC25 (nM)"],
 "data": [
  ["Cc1c(C(F)(F)C(=O)N[C@H](CO)c2ncc(C#N)cc2F)c(=O)[nH]c2ccnc(C#N)c12 (single isomer, unassigned)", "Rabbit Psoas myofibrils (skeletal myosin ATPase)", 80],
  ["Cc1nccc2[nH]c(=O)c(CC(=O)N[C@@H](C)c3ccc(F)cc3F)c(C#N)c12", "Rabbit Psoas myofibrils (skeletal myosin ATPase)", 110],
  ["Cc1c(C(C)C(=O)N[C@@H](C)c2ccc(F)cc2F)c(=O)[nH]c2ccncc12 (stereo partly shown)", "Rabbit Psoas myofibrils (skeletal myosin ATPase)", 2780],
  ["COc1nccc2[nH]c(=O)c(CC(=O)N[C@@H](C)c3ccc(F)cc3F)c(C)c12", "Rabbit Psoas myofibrils (skeletal myosin ATPase)", 30],
  ["Cc1cc(F)cc(F)c1[C@H](C)NC(=O)Cc1c(C)c2c(C)nccc2[nH]c1=O (single isomer, unassigned)", "Rabbit Psoas myofibrils (skeletal myosin ATPase)", 190],
  ["COc1cccc([C@H](C)NC(=O)Cc2c(C)c3c(C)nccc3[nH]c2=O)n1 (single isomer, unassigned)", "Rabbit Psoas myofibrils (skeletal myosin ATPase)", 100000],
  ["Cc1nccc2[nH]c(=O)c(CC(=O)N[C@H](C)c3ccc(C#N)cn3)c(C)c12 (single isomer, unassigned)", "Rabbit Psoas myofibrils (skeletal myosin ATPase)", 100000],
  ["Cc1nccc2[nH]c(=O)c(CC(=O)N[C@@H]3CCc4cc(C#N)cnc43)c(C)c12 (single isomer, unassigned)", "Rabbit Psoas myofibrils (skeletal myosin ATPase)", 5720],
  ["Cc1nccc2[nH]c(=O)c(CC(=O)N[C@@H](C)c3ccc(C#N)cn3)c(C)c12 (single isomer, unassigned)", "Rabbit Psoas myofibrils (skeletal myosin ATPase)", 1780],
  ["Cc1c(CC(=O)N[C@H](CO)c2ccc(F)cc2F)c(=O)[nH]c2ccc(C(F)(F)F)nc12", "Rabbit Psoas myofibrils (skeletal myosin ATPase)", 100000]
]}

(A) Cc1nccc2[nH]c(=O)c(CC(=O)N[C@@H](CO)c3cccnc3)c(C)c12 (single isomer, unassigned)
(B) Cc1c(CC(=O)N[C@@H](C)c2ncc(F)cc2F)c(=O)[nH]c2ccnc(C(F)(F)F)c12 (single isomer, unassigned)
Lookup: Pick one, A or B : lowest reported Skeletal EC25. Select an item and report its label.
Found: B
(B: 210 nM, A: 100000 nM)
